assay: Cmax in dog administered with 4 mg/kg, po; type: ADME, organism-based, Canis lupus familiaris; set-up: dose 4 mg/kg, route oral; settings: in vivo
MEASURED METRIC: Cmax (nM)

| SMI | OBSERVED VALUE |
| --- | --- |
| Cc1nc[nH]c1CNC(=O)Cn1c(C)cnc(NCCc2ccccc2)c1=O | 1400 |

###

experiment: Cmax in dog administered with 5 mg/kg, po; type: ADME, organism-based, Canis lupus familiaris; design: dose 5 mg/kg, route oral; details: in vivo

| SMI | UNIT OF MEASURE | Cmax |
| --- | --- | --- |
| Cc1[nH]cnc1/C=C/CNC(=O)[C@@H]1CCCN1C(=O)[C@H](N)C(c1ccccc1)c1ccccc1 | nM | 550 |

###

target: Trypsin (Homo sapiens, UniProt P07477+P07478+P35030); test: Binding affinity to trypsin; format: protein assay
Listed compounds paired with reported Ki
MEASURED METRIC: Ki (µM)

| SMI | MEASURED METRIC | OBSERVED VALUE |
| --- | --- | --- |
| Cc1ccc(NS(=O)(=O)Cc2ccccc2)c(=O)n1CC(=O)NCCCc1cnc(N)s1 | Ki | 124 |
| Cc1ccc(NS(=O)(=O)Cc2ccccc2)c(=O)n1CC(=O)NCc1c[nH]cn1 | Ki | 314 |
| Nc1ncc(CCCNC(=O)[C@@H]2CCCN2C(=O)[C@H](N)C(c2ccccc2)c2ccccc2)s1 | Ki | 32 |
| N[C@@H](C(=O)N1CCC[C@H]1C(=O)NCCCc1c[nH]cn1)C(c1ccccc1)c1ccccc1 | Ki | 0.24 |
| N[C@@H](C(=O)N1CCC[C@H]1C(=O)NC/C=C/c1c[nH]cn1)C(c1ccccc1)c1ccccc1 | Ki | 0.14 |

###

biological target: Trypsin (Homo sapiens, UniProt P07477+P07478+P35030); test: Binding affinity to trypsin; assay type: protein assay
Listed compounds paired with reported Ki
MEASURED METRIC: Ki (µM)

| SMI | MEASURED METRIC | CMP | OBSERVED VALUE |
| --- | --- | --- | --- |
| N[C@@H](C(=O)N1CCC[C@H]1C(=O)NCc1c[nH]cn1)C(c1ccccc1)c1ccccc1 | Ki | = | 36 |
| Cc1ccc(NS(=O)(=O)Cc2ccccc2)c(=O)n1CC(=O)NCc1cnc(N)s1 | Ki | > | 1000 |
| Nc1ncc(CNC(=O)[C@@H]2CCCN2C(=O)[C@H](N)C(c2ccccc2)c2ccccc2)s1 | Ki | = | 59 |
| Cc1ccc(NS(=O)(=O)Cc2ccccc2)c(=O)n1CC(=O)NC/C=C/c1c[nH]cn1 | Ki | = | 21 |
| N[C@@H](C(=O)N1CCC[C@H]1C(=O)NCCc1c[nH]cn1)C(c1ccccc1)c1ccccc1 | Ki | = | 2.3 |
| Nc1ncc(CCNC(=O)[C@@H]2CCCN2C(=O)[C@H](N)C(c2ccccc2)c2ccccc2)s1 | Ki | = | 59 |
| Cc1[nH]cnc1CNC(=O)[C@@H]1CCCN1C(=O)[C@H](N)C(c1ccccc1)c1ccccc1 | Ki | = | 9.6 |
| Cc1nc(N)sc1CNC(=O)Cn1c(C)ccc(NS(=O)(=O)Cc2ccccc2)c1=O | Ki | = | 6.5 |
| Cc1nc[nH]c1CNC(=O)Cn1c(C)ccc(NS(=O)(=O)Cc2ccccc2)c1=O | Ki | = | 43 |
| Cc1ccc(NS(=O)(=O)Cc2ccccc2)c(=O)n1CC(=O)NCCCc1c[nH]cn1 | Ki | = | 17 |
| Cc1ccc(NS(=O)(=O)Cc2ccccc2)c(=O)n1CC(=O)NC/C=C/c1cnc(N)s1 | Ki | > | 1000 |
| Cc1[nH]cnc1C#CCNC(=O)[C@@H]1CCCN1C(=O)[C@H](N)C(c1ccccc1)c1ccccc1 | Ki | = | 7.2 |
| Cc1[nH]cnc1/C=C/CNC(=O)[C@@H]1CCCN1C(=O)[C@H](N)C(c1ccccc1)c1ccccc1 | Ki | = | 0.1 |
| Nc1ncc(/C=C/CNC(=O)[C@@H]2CCCN2C(=O)[C@H](N)C(c2ccccc2)c2ccccc2)s1 | Ki | = | 178 |
| N[C@@H](C(=O)N1CCC[C@H]1C(=O)NCC#Cc1c[nH]cn1)C(c1ccccc1)c1ccccc1 | Ki | = | 6 |

###

These compounds were tested on Prothrombin (Homo sapiens); Ki is the recorded read-out.

| SMI | Ki, µM |
| --- | --- |
| Cc1cnc(NCCc2ccccc2)c(=O)n1CC(=O)NC[C@H]1CC[C@H](N)CC1 | 0.0064 |
| Nc1ncc(/C=C/CNC(=O)[C@@H]2CCCN2C(=O)[C@H](N)C(c2ccccc2)c2ccccc2)s1 | 0.03 |
| Cc1[nH]cnc1/C=C/CNC(=O)[C@@H]1CCCN1C(=O)[C@H](N)C(c1ccccc1)c1ccccc1 | 0.001 |
| Cc1ccc(NS(=O)(=O)Cc2ccccc2)c(=O)n1CC(=O)NCCCc1c[nH]cn1 | 0.034 |
| Cc1nc[nH]c1CNC(=O)Cn1c(C)ccc(NS(=O)(=O)Cc2ccccc2)c1=O | 0.008 |
| N[C@@H](C(=O)N1CCC[C@H]1C(=O)NCC#Cc1c[nH]cn1)C(c1ccccc1)c1ccccc1 | 0.013 |
| Cc1nc[nH]c1CNC(=O)Cn1c(C)cnc(NCCc2ccccn2)c1=O | 0.022 |
| Cc1nc(N)sc1CNC(=O)Cn1c(C)ccc(NS(=O)(=O)Cc2ccccc2)c1=O | 0.01 |
| Cc1[nH]cnc1C#CCNC(=O)[C@@H]1CCCN1C(=O)[C@H](N)C(c1ccccc1)c1ccccc1 | 0.006 |
| N[C@@H](C(=O)N1CCC[C@H]1C(=O)NCCCc1c[nH]cn1)C(c1ccccc1)c1ccccc1 | 0.017 |
| Cc1ccc(NS(=O)(=O)Cc2ccccc2)c(=O)n1CC(=O)NCc1c[nH]cn1 | 0.17 |

Value source: ChEMBL document CHEMBL1147766
